- Tested on: U251 CNS
- Assay Name: NCI tumour cell line growth inhibition, 48 h
Measured Quantity: TGI

Cc1c(C)[n+](=O)c(C)c(C)n1[O-]	> 100 µM
CNC(=O)c1cc(NC(=O)N(CCC#N)CCN(C(=O)N[C@@H](Cc2ccccc2)C(=O)N[C@@H](CC(C)C)C(=O)NC)c2ccccc2)ccc1OC	> 100 µM
C=C(C)C(=O)[C@@]12C(=O)[C@@H](C)CC[C@H]1[C@H](C)C[C@@H]2C=C(C)C	49.6 µM
Cc1nc2ccc(S(=O)(=O)O)cc2c(=O)n1-c1ccc(C(=O)NN2C(=O)C(Cl)C2c2ccccc2O)cc1 (stereo not given)	> 100 µM
Cc1ccnc2[nH]c(-c3ccccc3)cc(=O)c12	> 100 µM

// TGI lookup, key: `CCN(c1ccc(Br)cc1)c1c(Br)c(=O)nc2ccccn12`
> 100 µM

Note, next up: COc1cccc2c1C(=O)c1c(O)c3c(c(O)c1C2=O)C[C@@](O)(C(=O)CO)C[C@@H]3OC1C[C@H](N)[C@H](O)[C@H](C)O1 (stereo not given in full)
2.25 µM

Again, but for `O=S1(=O)c2ccccc2C(=NO)c2ccccc21`
> 100 µM

Another compound to check: COc1cc(CC2c3cc(OC)c(OC)cc3CCN2C)c(Oc2cc3c(cc2OC)-c2c(O)c(OC)cc4c2C(C3)N(C)CC4)cc1OC (stereo not given)
> 100 µM

Moving on to `O=c1[nH]nc(-c2ccccc2)n1/N=C/c1c(O)ccc2ccccc12`
86.4 µM

Cool, now CCOC(=O)CNC(=O)C(C)NC(=O)C(NC(=O)CC(c1ncc[nH]1)c1ncc[nH]1)C(C)CC (stereo not given)
> 100 µM

Then what about the compound S=C1Nc2ccc(Cl)cc2C2(c3ccccc3)N3CCN=C3NN12 (stereo not given) ?
> 100 µM

What do you have for `COc1cccc(/C=N/[N-]C(N)=O)c1[O-].[Ni+2].[OH3+].c1cnc2c(c1)ccc1cccnc12` ?
> 100 µM
